The origin of these recorded values is patent US11578055B2.

# assay.overview: In Vitro Microsome Stability Assay (rat)
# Assay type: in vitro ADME
# test.settings: rat, 30 min, NADPH
Where a name gives a salt, the structure may show the parent alone.
result.type: Liver Microsome Stability-% Left after 30 min w/ NADPH (%) Rat
Numeric only. Scale: %

Form: molecule = C=C1CN(S(=O)(=O)c2ccc(N(C)C)cc2)CCCN(CC2CCCCC2)CCCN(S(=O)(=O)N2CCc3cc(C#N)ccc3C2)C1 [A70] ; Liver Microsome Stability-% Left after 30 min w/ NADPH (%) Rat = 6.75

Reported Liver Microsome Stability-% Left after 30 min w/ NADPH (%) Rat for C=C1CN(S(=O)(=O)c2ccc(C)cc2)CCCN(C(=O)OCCC)CCCN(S(=O)(=O)c2ccc(N(C)C)cc2)C1 [A12] was 0.07

Per the record, C=C1CN(S(=O)(=O)c2ccc(N(C)C)cc2)CCCN(CC2CCCCC2)CCCN(S(=O)(=O)N2CCc3cccc(Cl)c3C2)C1 [A51] has Liver Microsome Stability-% Left after 30 min w/ NADPH (%) Rat of 34.7

Summary for this molecule, O=S(=O)(c1ccccc1)N1CCCN(CC2CCCCC2)CCCN(S(=O)(=O)N2CCCCC2)CC2(CC2)C1 [A34] : Liver Microsome Stability-% Left after 30 min w/ NADPH (%) Rat is 0.12

Just so you know, measured Liver Microsome Stability-% Left after 30 min w/ NADPH (%) Rat for Cc1ccccc1N1CCN(S(=O)(=O)N2CCCN(CC3CCCCC3)CCCN(S(=O)(=O)c3ccc(N(C)C)cc3)C[C@H](C)C2)CC1 [A97] came out at 71.4

The molecule identified as C=C1CN(S(=O)(=O)c2ccc(N(C)C)cc2)CCCN(CC2CCCCC2)CCCN(S(=O)(=O)N2CCC(c3cccc(Cl)c3)CC2)C1 [A58] registered its Liver Microsome Stability-% Left after 30 min w/ NADPH (%) Rat at 66.7

// Cc1ccc(S(=O)(=O)N2CCCN(CC3CCCCC3)CCCN(S(=O)(=O)c3ccc(N(C)C)cc3)CC3(CC3)C2)cc1 [A11, hydrochloride] : Liver Microsome Stability-% Left after 30 min w/ NADPH (%) Rat value = 0.17
